Reference for the values: the supplement of paper PMC9732359

- assay details: protein stability index of a GFP-peptide fusion (yeast GPS) (PSI 1-4); higher = more stable; sorted into four equal gates, so the index is relative within each strain
- assay setup: pdr5∆
Items are presented alongside their recorded protein stability index.

sequence content	protein stability index
LDIGLQRTTTGARVFGA [RPL5]	1.29
MCEQALSALFTISSKPD [YCS4]	1.72
KQRAGTASFIPLDTIET [SMC1]	2.82

###

- assay details: protein stability index of a GFP-peptide fusion (yeast GPS) (PSI 1-4); higher = more stable; sorted into four equal gates, so the index is relative within each strain
- assay setup: san1∆
Items are presented alongside their recorded protein stability index.

sequence content	protein stability index
ITARSAFVEFGASVIAG [SWP82]	1.86
DRQIINEKMQLLKDIFA [SIR4]	2.31
PSGAKKVISSDARGVIG [RPL2A]	2.9
IVISLKNTMFEKSDALV [SMC1]	2.55
SKQTPQPKAPRAPKVIH [ISW2]	2.93
TGYPDEPPAGVALPPGS [CYT1]	2.65
VVAKLEDKRKVRSAEYY [RPL16B]	3.15
KVLKSGSGVDSSKLQLT [RRP42]	3.16
KTATVKINKKLNKAGKP [RPL38]	3.22
ENEVSDIDVTIVSKEYE [ESC2]	3.09
SGLFVDVKKRTYEAIDV [RPB2]	2.99
SKLDYIFKDKEKLVSDL [SMC1]	3.27
SRIRVKIEGCISQVSSI [RPB7]	1.64
VDDDQDYVVAPGVNREI [GRR1]	3.31
VILGADSRTTTGAYIAN [PRE3]	3.12
EFGADWYKVAKNVGNKS [SWI3]	3.35
NIQGITKPAIRRLARRG [HHF1]	2.89
RYADAGNIDTKNNILGS [RRP43]	3.12
IMKIGGIKLQMQNSKVE [SMC4]	2.25
RAGQRTRFKAVVVVGDS [RPS2]	2.28
LVISLAATNETFENINS [IRR1]	1.9
ANEQLKLFNRIVERETN [CSN12]	1.71
VKIIRKSETSGRYASYR [RPB5]	3.01
LGRVRNHFIFNVESAGA [RPC40]	1.62
YVISLSYTDAQDKSKKI [YMR129W/POM152]	2.9
FSYQEVEFKLPKELVPS [CDC53]	2.07
PVQIVKRITQITIEPGV [RPS20]	1.35
LYDALEPSDLRSWTLTS [YGL100W/SEH1]	2.78
NQMGMGTNNGMSMGGGV [YOR098C/NUP1]	3.33
LDTYRERSKQLNEKFQE [SMC2]	3.37
TELVDKANIFQVIKNEV [SSN2]	2.97
NNSNSNNNDNNNSNTVA [SWI1]	3.04
AHAIDQMTWRQWLNNAL [POP8]	2.41
PGFDEFQLIDMKDKEIN [CSI1]	3.41
SRHFASYANLPGTITHG [FAS1]	2.57
ATKDNELNVKHVKQCQE [SMC2]	2.97
NQKTSAVAALTEVRAED [RPL8A]	3.18
SKLRNNIRSQLLSENRS [SRP54]	2.67
PHTPVTRKGYIPSSKYA [YLR018C/POM34]	2.96
DDYSNLKREERQGLIHQ [SMC3]	1.96
EFGTYGKYVIAGHVSGV [RPN14]	1.25
LYYRPHINKKSQLDLFL [GRR1]	1.28
VLADALNAINNAEKTGK [RPS22A]	2.67
SKVGSADTGRDDTKETV [RPN11]	3.59
SFFIASQLQEQFNKILP [FAS1]	2.54
EYLFKPQLISDKFSPED [ARP7]	2.32
ITSLQDSSSQCIVDFTN [YMR129W/POM152]	2.69
PNLLFSMCGFEVRILPR [PRP8]	2.25
